study.target: Tyrosyl-DNA phosphodiesterase 2 (Danio rerio, UniProt Q5XJA0)
Sequence (Q5XJA0 whole entry): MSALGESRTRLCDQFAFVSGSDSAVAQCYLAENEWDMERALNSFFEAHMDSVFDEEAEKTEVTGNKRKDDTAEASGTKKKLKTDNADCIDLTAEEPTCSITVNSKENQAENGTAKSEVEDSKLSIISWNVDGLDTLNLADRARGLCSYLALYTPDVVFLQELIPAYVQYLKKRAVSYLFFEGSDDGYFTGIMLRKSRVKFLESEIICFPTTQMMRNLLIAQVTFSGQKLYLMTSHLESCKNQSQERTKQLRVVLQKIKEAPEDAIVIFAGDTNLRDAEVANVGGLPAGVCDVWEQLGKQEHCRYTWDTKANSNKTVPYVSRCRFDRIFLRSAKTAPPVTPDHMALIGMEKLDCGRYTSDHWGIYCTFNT
test.summary: Inhibition of zebra fish recombinant TDP2 using alpha32P-cordycepin-3'-labeled TY19 as substrate after 15 mins by PAGE method
observed.property: IC50 (µM)
Numbers only, in µM.

Assign IC50 to the following record: O=C(NC(CSSCC(NC(=O)c1ccccc1)C(=O)O)C(=O)O)c1ccccc1 (stereo not drawn)
15

Lab note: each compound below needs its IC50 filled in.
1. N#CCCN(CCC#N)c1ccc(/C=C2\C(=O)N(c3ccc(S(=O)(=O)O)cc3)N=C2C(=O)O)cc1
2. O=C(Cc1ccccc1)NC(CSSCC(NC(=O)Cc1ccccc1)C(=O)O)C(=O)O (stereo not drawn)

[5.2, 20]

* * *

study.target: Tyrosyl-DNA phosphodiesterase 2 (Mus musculus, UniProt Q9JJX7)
Sequence (Q9JJX7 whole entry): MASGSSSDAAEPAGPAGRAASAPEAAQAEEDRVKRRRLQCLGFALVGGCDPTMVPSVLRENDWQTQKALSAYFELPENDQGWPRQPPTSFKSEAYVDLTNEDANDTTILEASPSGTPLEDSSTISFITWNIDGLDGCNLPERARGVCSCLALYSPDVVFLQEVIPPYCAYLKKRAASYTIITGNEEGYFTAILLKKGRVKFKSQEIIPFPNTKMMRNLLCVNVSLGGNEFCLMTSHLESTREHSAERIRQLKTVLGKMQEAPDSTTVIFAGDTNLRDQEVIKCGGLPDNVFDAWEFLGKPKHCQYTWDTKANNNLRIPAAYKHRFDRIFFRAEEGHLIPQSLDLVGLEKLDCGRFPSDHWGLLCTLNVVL
test.summary: Inhibition of mouse recombinant TDP2 using alpha32P-cordycepin-3'-labeled TY19 as substrate after 15 mins by PAGE method
observed.property: pIC50
Answers are plain numbers, as −log10 of the molar value.

Fill in reported pIC50 for this entry: N#CCCN(CCC#N)c1ccc(/C=C2\C(=O)N(c3ccc(S(=O)(=O)O)cc3)N=C2C(=O)O)cc1
4.82

* * *

Consider the following compounds; for each one, report its pIC50.
study.target: Tyrosyl-DNA phosphodiesterase 1 (Homo sapiens)
Sequence (Q9NUW8 whole entry): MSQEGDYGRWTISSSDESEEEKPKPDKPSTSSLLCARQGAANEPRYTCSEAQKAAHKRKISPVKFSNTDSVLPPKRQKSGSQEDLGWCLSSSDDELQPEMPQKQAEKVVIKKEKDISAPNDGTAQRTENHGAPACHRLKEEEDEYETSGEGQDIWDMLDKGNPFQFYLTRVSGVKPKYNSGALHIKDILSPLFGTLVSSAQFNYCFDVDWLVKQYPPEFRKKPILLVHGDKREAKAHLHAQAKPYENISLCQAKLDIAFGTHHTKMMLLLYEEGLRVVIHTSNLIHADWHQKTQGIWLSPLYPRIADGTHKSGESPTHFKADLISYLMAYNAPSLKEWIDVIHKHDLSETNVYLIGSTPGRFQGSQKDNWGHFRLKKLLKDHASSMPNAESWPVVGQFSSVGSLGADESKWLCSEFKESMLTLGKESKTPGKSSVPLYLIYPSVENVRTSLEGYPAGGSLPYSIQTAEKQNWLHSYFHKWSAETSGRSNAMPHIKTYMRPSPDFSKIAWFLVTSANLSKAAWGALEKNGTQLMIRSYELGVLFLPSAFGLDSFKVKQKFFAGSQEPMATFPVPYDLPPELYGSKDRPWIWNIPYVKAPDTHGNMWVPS
test.summary: Inhibition of human recombinant TDP1 using 5'-[32P]-labeled N14Y as substrate after 15 mins by PAGE method
pIC50: −log10 of the molar value.

Please look at this compound and report its pIC50: O=C(Cc1ccccc1)NC(CSSCC(NC(=O)Cc1ccccc1)C(=O)O)C(=O)O (configuration not stated)
< 3.95

Others:
Give the reported pIC50 for this compound. N#CCCN(CCC#N)c1ccc(/C=C2\C(=O)N(c3ccc(S(=O)(=O)O)cc3)N=C2C(=O)O)cc1
< 3.95
